Reported relative cell viability values follow for various compounds
- Test system: HL-1
- Assay Name: relative cell viability (CellTiter-Glo) vs DMSO control (% of DMSO control); higher = more viable cells
- Condition Details: oxygen condition: normoxia 72 h; 40 nM
Where a name gives a salt, the structure may show the parent alone.
Measurement Label: relative cell viability

In [3]: df
Out[3]:
                                   compound  experimental_system        measurement_label  data_value
0  C=C(c1ccc(C(=O)O)cc1)c1cc2c(cc1C)C(C)(C)CCC2(C)C                 HL-1  relative cell viability         106
1  COc1cc2c(cc1OC)CC(=O)N(CCCN(C)C[C@H]1Cc3cc(OC)c(OC)cc31)CC2 [Ivabradine HCl]                 HL-1  relative cell viability         105
2  CC1(C)S[C@@H]2[C@H](NC(=O)[C@H](N)c3ccc(O)cc3)C(=O)N2[C@H]1C(=O)O                 HL-1  relative cell viability         104
3                    NC(=O)CC[C@H](N)C(=O)O                 HL-1  relative cell viability         102
4  O=C(O)C[C@H](O)C[C@H](O)/C=C/c1c(C2CC2)nc2ccccc2c1-c1ccc(F)cc1                 HL-1  relative cell viability         117
5  COc1cc2nc(N(C)CCCNC(=O)C3CCCO3)nc(N)c2cc1OC (centres undefined) [Alfuzosin hydrochloride]                 HL-1  relative cell viability         103
6                 CCCc1cc(=O)[nH]c(=S)[nH]1                 HL-1  relative cell viability        99.3
7  Nc1[nH]cnc2ncnc1-2 [Adenine hydrochloride]                 HL-1  relative cell viability         100
8  CC(C)NCC(O)COc1ccc(COCCOC(C)C)cc1 (centres undefined)                 HL-1  relative cell viability        90.8

====

- Tested on: HL-1
- Assay Name: relative cell viability (CellTiter-Glo) vs DMSO control (% of DMSO control); higher = more viable cells
- Condition Details: oxygen condition: normoxia 72 h; 200 nM
Counter-ions that a name gives are not always drawn.
Reported relative cell viability values follow for various compounds
Measurement Label: relative cell viability

                                   compound        measurement_label  data_value
0                     N[C@@H](CSCCCO)C(=O)O  relative cell viability         109
1  CN(C)CCC(c1ccccc1)c1ccccn1 (stereo not given) [Pheniramine Maleate]  relative cell viability         101
2  C[C@]12CC[C@@H]3c4ccc(O)cc4CC[C@H]3[C@@H]1C[C@@H](O)[C@@H]2O  relative cell viability         101
3  CS(=O)(=O)CCNCc1ccc(-c2ccc3ncnc(Nc4ccc(OCc5cccc(F)c5)c(Cl)c4)c3c2)o1 [Lapatinib Ditosylate]  relative cell viability         115
4   OCCN1C[C@H](O)[C@@H](O)[C@H](O)[C@H]1CO  relative cell viability         102
5  O=C(Nc1ccccc1)OCC(CN1CCCCC1)OC(=O)Nc1ccccc1 (stereo not given) [Diperodon HCl]  relative cell viability         107
6  O=C(CCNNC(=O)c1ccncc1)NCc1ccccc1 [Nialamide]  relative cell viability         105
7  OCC(CO)N[C@H]1C[C@](O)(CO)[C@@H](O)[C@H](O)[C@H]1O  relative cell viability         114
8                                 Cn1ccnc1S  relative cell viability         100
9                CN(C)/N=N/c1[nH]cnc1C(N)=O  relative cell viability         106
